target: human MOP (Homo sapiens, UniProt P35372); experiment: [35S]-GTPγS binding assay, hMOP/CHO membranes; assay type: biochemical
Sequence (P35372 whole entry): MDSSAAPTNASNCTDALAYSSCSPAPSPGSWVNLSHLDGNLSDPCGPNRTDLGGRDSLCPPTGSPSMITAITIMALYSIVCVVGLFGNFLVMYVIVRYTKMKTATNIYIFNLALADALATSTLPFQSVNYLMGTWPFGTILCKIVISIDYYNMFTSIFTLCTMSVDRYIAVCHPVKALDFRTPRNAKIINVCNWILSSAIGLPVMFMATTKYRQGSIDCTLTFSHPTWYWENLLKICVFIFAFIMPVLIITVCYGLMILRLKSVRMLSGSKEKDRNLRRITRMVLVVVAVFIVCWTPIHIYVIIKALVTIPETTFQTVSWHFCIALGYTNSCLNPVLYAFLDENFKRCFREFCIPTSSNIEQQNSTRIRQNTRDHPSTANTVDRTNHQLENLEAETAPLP

Given smiles | EC50
CC[C@]1(c2cc(NS(=O)(=O)C3CC3)ccc2F)[C@@H]2CN(CC3(O)Cc4ccccc4C3)C[C@@H]21 | > 10 µM

###

assay: Pharmacokinetics after a single oral administration (plasma, LC-MS/MS); conditions: male, Crl:CD1 (ICR), mouse, in vivo, 4 mg/kg

Given smiles | concentration at 24 h / ng/mL
CC[C@]1(c2cc(NS(=O)(=O)C3CC3)ccc2F)[C@@H]2CN(CC3(O)Cc4ccccc4C3)C[C@@H]21 | 0.395

###

experiment: Pharmacokinetics after a single oral administration (plasma, LC-MS/MS); details: male, Crl:CD1 (ICR), mouse, in vivo, 0.5 mg/kg

Compound | concentration at 4 h
CC[C@]1(c2cc(NS(=O)(=O)C3CC3)ccc2F)[C@@H]2CN(CC3(O)Cc4ccccc4C3)C[C@@H]21 [UD-030] | 4.61 ng/mL

###

test: Pharmacokinetics after a single oral administration (plasma, LC-MS/MS); conditions: male, Crl:CD1 (ICR), mouse, in vivo, 2 mg/kg
Readout: concentration at 1 h (ng/mL)

Given smiles | Value reported
CC[C@]1(c2cc(NS(=O)(=O)C3CC3)ccc2F)[C@@H]2CN(CC3(O)Cc4ccccc4C3)C[C@@H]21 | 25.5

###

target: human DOP (Homo sapiens); assay: [35S]-GTPγS binding assay, hDOP/CHO membranes
pEC50: −log10 of the molar value.
Readout: pEC50

Given smiles | Value reported
CC[C@]1(c2cc(NS(=O)(=O)C3CC3)ccc2F)[C@@H]2CN(CC3(O)Cc4ccccc4C3)C[C@@H]21 | < 5.00

###

molecular target: human NOP (Homo sapiens)
Sequence (P41146 whole entry): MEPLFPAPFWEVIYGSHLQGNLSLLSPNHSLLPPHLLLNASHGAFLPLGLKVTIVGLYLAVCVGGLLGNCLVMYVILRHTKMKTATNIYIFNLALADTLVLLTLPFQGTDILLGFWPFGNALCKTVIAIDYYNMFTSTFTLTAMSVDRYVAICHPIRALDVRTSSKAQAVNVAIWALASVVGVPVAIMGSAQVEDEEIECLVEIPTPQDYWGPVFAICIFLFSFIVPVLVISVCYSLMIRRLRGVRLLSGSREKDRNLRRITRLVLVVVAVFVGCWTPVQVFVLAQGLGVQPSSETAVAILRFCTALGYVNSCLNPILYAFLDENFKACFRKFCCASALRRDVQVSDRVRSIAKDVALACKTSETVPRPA
Readout: IC50 (nM)

Given smiles | Value reported
CC[C@]1(c2cc(NS(=O)(=O)C3CC3)ccc2F)[C@@H]2CN(CC3(O)Cc4ccccc4C3)C[C@@H]21 | 330

###

test: Pharmacokinetics after a single oral administration (plasma, LC-MS/MS); settings: male, Crl:CD1 (ICR), mouse, plasma, 0.5 mg/kg
Readout: AUC(0-t) (ng·h/mL)

Molecule | Readout | Value reported
CC[C@]1(c2cc(NS(=O)(=O)C3CC3)ccc2F)[C@@H]2CN(CC3(O)Cc4ccccc4C3)C[C@@H]21 [UD-030] | AUC(0-t) | 72.3

###

assay: Pharmacokinetics after a single oral administration (plasma, LC-MS/MS); details: male, Crl:CD1 (ICR), mouse, in vivo, 0.5 mg/kg
Readout: concentration at 0.5 h (ng/mL)

Compound | Readout | Quantity unit | Value reported
CC[C@]1(c2cc(NS(=O)(=O)C3CC3)ccc2F)[C@@H]2CN(CC3(O)Cc4ccccc4C3)C[C@@H]21 [UD-030] | concentration at 0.5 h | ng/mL | 1.09

###

molecular target: human DOP (Homo sapiens, UniProt P41143); assay: [35S]-GTPγS binding assay, hDOP/CHO membranes; assay type: biochemical
Sequence (P41143 whole entry): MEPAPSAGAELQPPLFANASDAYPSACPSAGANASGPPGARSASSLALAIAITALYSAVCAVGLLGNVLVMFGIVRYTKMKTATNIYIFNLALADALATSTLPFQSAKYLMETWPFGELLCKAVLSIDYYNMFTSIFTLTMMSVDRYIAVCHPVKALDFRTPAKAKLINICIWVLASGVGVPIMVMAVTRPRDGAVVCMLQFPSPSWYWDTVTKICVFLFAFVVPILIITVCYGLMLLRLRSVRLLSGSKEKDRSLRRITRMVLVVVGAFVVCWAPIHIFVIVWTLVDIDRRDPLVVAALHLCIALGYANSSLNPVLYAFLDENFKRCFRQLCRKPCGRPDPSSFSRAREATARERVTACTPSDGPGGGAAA

Given smiles | IC50, nM
CC[C@]1(c2cc(NS(=O)(=O)C3CC3)ccc2F)[C@@H]2CN(CC3(O)Cc4ccccc4C3)C[C@@H]21 | 850

###

assay: Pharmacokinetics after a single oral administration (plasma, LC-MS/MS); conditions: male, Crl:CD1 (ICR), mouse, in vivo, 2 mg/kg

Molecule | concentration at 24 h, ng/mL
CC[C@]1(c2cc(NS(=O)(=O)C3CC3)ccc2F)[C@@H]2CN(CC3(O)Cc4ccccc4C3)C[C@@H]21 [UD-030] | 0.35

// provenance: paper PMC9961271
